target: calcium sensing receptor as found in the human parathyroid gland (Homo sapiens); assay: calcium mobilization fluorescence (FLIPR) assay, agonist mode; settings: transfected HEK 293 cells; 1 mM calcium standard; Tables 2-7; read-out: In Vitro: CS50, where potency is at 50% of the calcium standard potency
Sequence (P41180 20-1078): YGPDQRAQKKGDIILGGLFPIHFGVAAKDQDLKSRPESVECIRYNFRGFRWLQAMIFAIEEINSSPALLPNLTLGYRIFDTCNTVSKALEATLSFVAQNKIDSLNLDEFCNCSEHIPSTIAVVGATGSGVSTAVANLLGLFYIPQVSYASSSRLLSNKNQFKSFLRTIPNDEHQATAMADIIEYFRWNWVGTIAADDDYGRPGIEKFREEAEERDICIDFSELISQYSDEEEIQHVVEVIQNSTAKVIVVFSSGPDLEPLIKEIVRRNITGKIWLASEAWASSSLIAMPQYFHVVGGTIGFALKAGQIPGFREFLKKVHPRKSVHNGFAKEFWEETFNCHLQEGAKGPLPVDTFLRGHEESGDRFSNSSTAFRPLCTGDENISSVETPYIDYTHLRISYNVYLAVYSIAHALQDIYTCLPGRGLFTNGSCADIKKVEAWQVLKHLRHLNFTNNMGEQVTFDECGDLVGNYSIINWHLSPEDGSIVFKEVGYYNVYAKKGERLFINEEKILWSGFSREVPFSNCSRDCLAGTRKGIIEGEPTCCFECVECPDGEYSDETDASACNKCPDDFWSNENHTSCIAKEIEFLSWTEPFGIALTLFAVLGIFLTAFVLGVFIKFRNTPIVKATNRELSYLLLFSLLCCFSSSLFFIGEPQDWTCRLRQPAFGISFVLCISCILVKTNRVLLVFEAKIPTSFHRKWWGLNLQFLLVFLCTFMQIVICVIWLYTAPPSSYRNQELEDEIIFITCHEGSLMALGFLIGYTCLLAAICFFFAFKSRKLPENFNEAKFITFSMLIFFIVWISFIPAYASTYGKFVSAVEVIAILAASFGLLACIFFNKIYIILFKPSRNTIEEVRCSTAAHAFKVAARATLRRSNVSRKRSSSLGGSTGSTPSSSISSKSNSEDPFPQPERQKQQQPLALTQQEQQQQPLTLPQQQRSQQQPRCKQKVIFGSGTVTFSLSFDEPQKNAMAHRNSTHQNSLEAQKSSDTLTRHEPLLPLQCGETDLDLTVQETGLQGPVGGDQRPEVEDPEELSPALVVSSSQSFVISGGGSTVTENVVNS
MEASURED_PROPERTY: EC50 (µM)

Below: 5 compounds and their reported EC50.
INSERT INTO results (compound, recorded_result) VALUES
  ('COc1cccc([C@@H](C)NCC2CC2c2cccc(C)c2)c1 (some centres unmarked) [Compound 13]', 9.5),
  ('COc1cccc([C@@H](C)NCC2C(C)C2c2ccccc2)c1 (some centres unmarked) [Compound 67]', 10.1),
  ('COc1cccc([C@@H](C)NC[C@@H]2C[C@H]2c2cccc(F)c2)c1 [Compound 22]', 9.3),
  ('CCOc1cccc([C@@H](C)NC[C@@H]2C[C@H]2c2ccccc2)c1 [Compound 50]', 11.9),
  ('C[C@@H](NC[C@@H]1C[C@H]1c1ccccc1)c1cccc(OC2CCCC2)c1 [Compound 52]', 12.2);

(A) COc1cccc([C@@H](C)NCC2CC2c2ccsc2)c1 (some centres unmarked) [Compound 26]
(B) COc1cccc([C@@H](C)NC[C@H]2C[C@@H]2c2cccc(F)c2)c1 [Compound 21]
(C) COc1cccc([C@@H](C)NC[C@H]2C[C@H]2c2ccccc2)c1 [Compound 62]
(D) COc1cccc([C@@H](C)NCC2CC2c2ccccc2C(F)(F)F)c1 (some centres unmarked) [Compound 14]
(E) COc1cccc([C@@H](C)NCC2CC2c2cccs2)c1 (some centres unmarked) [Compound 25]
Exercise: Put the items in order so that reported EC50 rises from first to last. The reply should contain the labels ordered as requested.
Key: A, E, B, C, D

Attribution: patent US6172091A
